Tested on: S. haemolyticus AVAH 88-3
Experimental Protocol: MIC, agar dilution
Type: cell-based
Experimental Setup: S. hemolyticus AVHAH 88-3; Table IA; unit assumed
The following compounds are shown together with reported Antibacterial activity (MIC) values.
The response must be a number in µg/mL with no trailing unit.

Illustrative cases are given below, each with its answer.
Tested on S. haemolyticus AVAH 88-3, the item CCNCC(=O)Nc1cc(N(C)C)c2c(c1O)C(=O)C1=C(O)[C@]3(O)C(=O)C(C(N)=O)=C(O)[C@@H](N(C)C)C3CC1C2.Cl.Cl (stereo partly drawn) [OO] showed Antibacterial activity (MIC) equal to 1

With S. haemolyticus AVAH 88-3 as the test system, CN(C)CC(=O)Nc1cc(N(C)C)c2c(c1O)C(=O)C1=C(O)[C@]3(O)C(=O)C(C(=O)NCN4CCOCC4)=C(O)[C@@H](N(C)C)C3CC1C2 (stereo partly drawn) [GGG] showed Antibacterial activity (MIC) of 0.5

With those in mind, consider the next compound.
Antibacterial activity (MIC) of CN(C)c1cc(NC(=O)CNC2CCC2)c(O)c2c1CC1CC3C(N(C)C)C(O)=C(C(N)=O)C(=O)C3(O)C(O)=C1C2=O (stereo not drawn) [MMM] , assay on S. haemolyticus AVAH 88-3, is 0.24
